# maps each entry to its growth AUC normalised to DMSO control
# System: Haemophilus parainfluenzae
# protocolNotes: growth AUC normalised to DMSO control (fraction of control); higher = less growth inhibition, active = hit call of the paper
# setupConditions: 20 µM
Where a name gives a salt, the structure may show the parent alone.

{"columns": ["molecule", "growth AUC normalised to DMSO control"],
 "data": [
  ["CC(C(=O)O)c1ccc(C(=O)c2cccs2)cc1 (stereo unspecified)", 0.987],
  ["Clc1ccc(CCC(Cn2ccnc2)Sc2c(Cl)cccc2Cl)cc1 (stereo unspecified) [Butoconazole nitrate]", 0.97],
  ["CC(CCc1ccccc1)NCC(O)c1ccc(O)c(C(N)=O)c1 (stereo unspecified) [Labetalol hydrochloride]", 0.954],
  ["CC1(C)S[C@@H]2[C@H](NC(=O)Cc3ccccc3)C(=O)N2[C@H]1C(=O)O [Benzylpenicillin sodium]", 0.0512],
  ["Cc1cc(NS(=O)(=O)c2ccc(N)cc2)no1", 1.01],
  ["CCCc1cc(=O)[nH]c(=S)[nH]1", 0.991],
  ["CO[C@@H]1[C@@H](O[C@@H]2O[C@H](C)[C@@H](O[C@H]3C[C@@](C)(O)[C@@H](OC(=O)CC(C)C)[C@H](C)O3)[C@H](N(C)C)[C@H]2O)[C@@H](CC=O)C[C@@H](C)[C@@H](O)/C=C/C=C/C[C@@H](C)OC(=O)C[C@H]1OC(C)=O", 0.0327],
  ["CCCCC(O)c1ccccc1 (stereo unspecified)", 0.989],
  ["Nc1ncn(C2OC(CO)C(O)C2O)c(=O)n1 (stereo unspecified)", 0.781],
  ["CCN(CCCc1ccccc1)CCCc1ccccc1 [Alverine citrate salt]", 0.925],
  ["Cc1cc(N)c2ccccc2[n+]1CCCCCCCCCC[n+]1c(C)cc(N)c2ccccc21 [Dequalinium dichloride]", 0.907]
]}

====

# System: Haemophilus parainfluenzae
# protocolNotes: growth AUC normalised to DMSO control (fraction of control); higher = less growth inhibition, active = hit call of the paper;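 active = AUC significantly below DMSO controls by Student t-fit with adjusted P under 0.01; inactive = not significantly reduced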
# setupConditions: 20 µM
Structures can show the parent of a compound that is named as a salt.
Possible outcomes: active, inactive

{"columns": ["compound", "assignedLabel"],
 "data": [
  ["CCCCOc1ccc(C(=O)CCN2CCCCC2)cc1 [Dyclonine hydrochloride]", "inactive"],
  ["C#C[C@]1(O)CC[C@H]2[C@@H]3CCC4=CC(=O)CC[C@@H]4[C@H]3CC[C@@]21CC", "inactive"],
  ["CC(Oc1c(Cl)cccc1Cl)C1=NCCN1 (stereo unspecified)", "inactive"],
  ["C=C1CC[C@@]2(O)[C@H]3Cc4ccc(O)c5c4[C@@]2(CCN3CC2CC2)[C@H]1O5 [Nalmefene hydrochloride]", "inactive"],
  ["CC1=C(CC(=O)O)c2cc(F)ccc2/C1=C\\c1ccc([S+](C)[O-])cc1 (stereo unspecified)", "inactive"],
  ["O=C(O)CNC(=O)C(CS)Cc1ccccc1 (stereo unspecified)", "inactive"],
  ["NC12CC3CC(CC(C3)C1)C2 [Adamantamine fumarate]", "inactive"],
  ["CCCc1nn(C)c2c(=O)[nH]c(-c3cc(S(=O)(=O)N4CCN(C)CC4)ccc3OCC)nc12", "inactive"],
  ["CCOC(=O)c1ccc(N)cc1", "inactive"],
  ["NNC(=O)c1ccncc1", "inactive"],
  ["CCN(CC)CCOC(=O)C(c1ccccc1)C1CCCCC1 (stereo unspecified) [Drofenine hydrochloride]", "inactive"],
  ["CC[C@H]1OC(=O)[C@H](C)[C@@H](O[C@H]2C[C@@](C)(OC)[C@@H](O)[C@H](C)O2)[C@H](C)[C@@H](O[C@@H]2O[C@H](C)C[C@H](N(C)C)[C@H]2O)[C@](C)(O)C[C@@H](C)/C(=N\\OCOCCOC)[C@H](C)[C@@H](O)[C@]1(C)O", "active"],
  ["CNC(=O)c1c(I)c(C(=O)NCC(=O)Nc2c(I)c(C(=O)O)c(I)c(C(=O)NCCO)c2I)c(I)c(N(C)C(C)=O)c1I", "inactive"],
  ["CC(=O)OCC1=C(C(=O)O)N2C(=O)[C@@H](N)[C@H]2SC1", "inactive"],
  ["CC(=O)[C@H]1CC[C@H]2[C@@H]3CCC4=CC(=O)CC[C@]4(C)[C@H]3CC[C@]12C", "inactive"],
  ["OC(Cn1cncn1)(Cn1cncn1)c1ccc(F)cc1F", "inactive"],
  ["CC(C(=O)O)c1cccc(Oc2ccccc2)c1 (stereo unspecified) [Fenoprofen calcium salt dihydrate]", "inactive"],
  ["CNC(=C[N+](=O)[O-])NCCSCc1csc(CN(C)C)n1", "inactive"],
  ["CCCc1cc(C(N)=S)ccn1 [Prothionamide]", "inactive"],
  ["Clc1ccc(CO/N=C(\\Cn2ccnc2)c2ccc(Cl)cc2Cl)c(Cl)c1 [Oxiconazole nitrate]", "inactive"],
  ["CCN(CC)C(=S)SSC(=S)N(CC)CC", "inactive"],
  ["Cc1noc(NS(=O)(=O)c2ccc(N)cc2)c1C", "inactive"],
  ["Cc1cccc(C)c1OCC(C)N (stereo unspecified) [Mexiletine hydrochloride]", "inactive"],
  ["CCOc1ccccc1OC(c1ccccc1)C1CNCCO1 (stereo unspecified) [Reboxetine mesylate]", "inactive"],
  ["Nc1nc(O)c2ncn(CCC(CO)CO)c2n1", "inactive"],
  ["COc1ccc(-c2cc(=S)ss2)cc1", "inactive"]
]}

====

# Test system: Haemophilus parainfluenzae
# protocolNotes: growth AUC normalised to DMSO control (fraction of control); higher = less growth inhibition, active = hit call of the paper
# setupConditions: 20 µM
Counter-ions that a name gives are not always drawn.
observable: growth AUC normalised to DMSO control

{"columns": ["molecule", "observable", "endpointValue"],
 "data": [
  ["c1ccc(-c2ccc(C(c3ccccc3)n3ccnc3)cc2)cc1 (stereo not drawn)", "growth AUC normalised to DMSO control", 0.998],
  ["C[C@]12CC[C@@H]3c4ccc(OS(=O)(=O)O)cc4CC[C@H]3[C@@H]1CCC2=O [Estropipate piperazine salt]", "growth AUC normalised to DMSO control", 0.985],
  ["Cn1c(=O)c2c(ncn2CC(O)CO)n(C)c1=O (stereo not drawn)", "growth AUC normalised to DMSO control", 0.994],
  ["CC(C)(C)NCC(O)COc1cccc2c1CCC(=O)N2 (stereo not drawn) [Carteolol hydrochloride]", "growth AUC normalised to DMSO control", 0.985],
  ["O=C(c1ccccc1)c1ccc2n1CCC2C(=O)O (stereo not drawn)", "growth AUC normalised to DMSO control", 0.972],
  ["COc1cc(OC)c(C(=O)CCCN2CCCC2)c(OC)c1 [Buflomedil hydrochloride]", "growth AUC normalised to DMSO control", 1.01],
  ["CC[C@H](C)[C@H](N)C1=N[C@H](C(=O)N[C@@H](CC(C)C)C(=O)N[C@H](CCC(=O)O)C(=O)N[C@H](C(=O)N[C@H]2CCCCNC(=O)[C@H](CC(N)=O)NC(=O)[C@@H](CC(=O)O)NC(=O)[C@H](Cc3cnc[nH]3)NC(=O)[C@@H](Cc3ccccc3)NC(=O)[C@H]([C@@H](C)CC)NC(=O)[C@@H](CCCN)NC2=O)[C@@H](C)CC)CS1", "growth AUC normalised to DMSO control", 0.999],
  ["Cn1c(=O)c2c(ncn2CCO)n(C)c1=O", "growth AUC normalised to DMSO control", 1.02],
  ["CC(=O)/N=c1/sc(S(N)(=O)=O)nn1C [Methazolamide]", "growth AUC normalised to DMSO control", 1],
  ["C[C@H]1O[C@@H](O[C@H]2[C@@H](O)C[C@H](O[C@H]3[C@@H](O)C[C@H](O[C@H]4CC[C@@]5(C)[C@H](CC[C@@H]6[C@@H]5C[C@@H](O)[C@]5(C)[C@@H](C7=CC(=O)OC7)CC[C@]65O)C4)O[C@@H]3C)O[C@@H]2C)C[C@H](O)[C@@H]1O", "growth AUC normalised to DMSO control", 0.979],
  ["CN(C)C/C=C(/c1ccc(Br)cc1)c1cccnc1 [Zimelidine dihydrochloride monohydrate]", "growth AUC normalised to DMSO control", 0.972],
  ["CCN(CC)CCNC(C(=O)OCCC(C)C)c1ccccc1 (stereo not drawn) [Camylofine chlorhydrate]", "growth AUC normalised to DMSO control", 0.98],
  ["CC/C(=C(/CC)c1ccc(O)cc1)c1ccc(O)cc1", "growth AUC normalised to DMSO control", 1.01],
  ["Cn1c(=O)c2nc[nH]c2n(C)c1=O [Theophylline monohydrate]", "growth AUC normalised to DMSO control", 0.98],
  ["CC(C)[N+](C)(CCOC(=O)C1c2ccccc2Oc2ccccc21)C(C)C [Propantheline bromide]", "growth AUC normalised to DMSO control", 0.988],
  ["CC(C)c1cccc(C(C)C)c1O", "growth AUC normalised to DMSO control", 0.988],
  ["O=C1C(CC[S+]([O-])c2ccccc2)C(=O)N(c2ccccc2)N1c1ccccc1 (stereo not drawn)", "growth AUC normalised to DMSO control", 1.02],
  ["C=CCC1(CC(C)C)C(=O)NC(=O)NC1=O", "growth AUC normalised to DMSO control", 0.978]
]}
